system: NCI-H460; experiment: Cytotoxicity, lung-NSC NCI-H460; format: cell-based, human; details: NCI-H460
recorded.metric: Lung-NSC NCI-H460 GI50 (µg/mL)
Record the value in µg/mL, omitting the unit from your answer.

Sample COc1ccc(C(O)c2cc(OC)cc(OC)c2)cc1 (stereo not shown) [Compound 15a] ; Lung-NSC NCI-H460 GI50 observed: 21.7

Sample COc1ccc(C=Cc2cc(OC)cc(OC)c2)cc1 [Compound 4b, 3,4′,5-trimethoxystilbene] ; Lung-NSC NCI-H460 GI50 observed: 0.62

Sample COc1ccc(/C=C\c2cc(OC)c(OC)c(OC)c2)cc1O [Compound 2a, combretastatin A-4, reference compound] ; Lung-NSC NCI-H460 GI50 observed: 0.0006

Sample COc1cc(OC)cc(C(=O)c2ccc(O)cc2)c1 [Compound 16c] ; Lung-NSC NCI-H460 GI50 observed: 3.0

* * *

tested on: Neisseria gonorrhoeae; assay: Antimicrobial broth microdilution, MIC; format: cell-based; details: Neisseria gonorrhoeae; read-out: Minimum inhibitory concentration
Assign MIC to each entry below.

Assay Neisseria gonorrhoeae, sample O=C(c1ccc(O)cc1)c1cc(O)cc(O)c1 [Compound 16g, 3,4′,5-trihydroxybenzophenone] , MIC read: > 64 µg/mL

Assay Neisseria gonorrhoeae, sample COc1ccc(C=Cc2cc(O)cc(O)c2)cc1 [Compound 14k, 3,5-dihydroxy-4′-methoxy-stilbene] , MIC read: 16 µg/mL

Assay Neisseria gonorrhoeae, sample COc1ccc(C(=O)c2cc(O)cc(OC)c2)cc1 [Compound 16k, 4′,5-dimethoxy-3-hydroxybenzophenone] , MIC read: 16 to 32 µg/mL

Assay Neisseria gonorrhoeae, sample Oc1ccc(/C=C/c2cc(O)cc(O)c2)cc1 [Compound 1, 3,4′,5-trihydroxy-trans-stilbene, reference compound] , MIC read: 16 to 32 µg/mL

Data provenance is patent US7705188B2.
